Origin of measurements: patent US20240360228A1

Target: T1, human chemokine (C-C motif) receptor 8 (CCR8) (human, UniProt P51685 1-355)
T1 construct: On human peripheral blood lymphocytes / PBMC (native) or on human CCR8 GFP-transfected Ba/F3 cells; also called hCCR8; human CCR8
T1 sequence (P51685 whole entry): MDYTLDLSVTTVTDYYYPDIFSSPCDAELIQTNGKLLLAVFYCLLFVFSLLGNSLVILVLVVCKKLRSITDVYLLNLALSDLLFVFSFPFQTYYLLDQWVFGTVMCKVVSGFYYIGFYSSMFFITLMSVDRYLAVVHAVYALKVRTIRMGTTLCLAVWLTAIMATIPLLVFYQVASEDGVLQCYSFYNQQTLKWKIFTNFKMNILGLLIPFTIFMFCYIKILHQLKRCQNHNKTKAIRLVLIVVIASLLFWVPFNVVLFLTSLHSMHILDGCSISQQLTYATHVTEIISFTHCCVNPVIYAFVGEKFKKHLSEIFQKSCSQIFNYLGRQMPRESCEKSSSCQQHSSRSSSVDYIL
Assay: flow cytometry blocking, PBMC CCR8+ CD4+ cells; competitor PE-AB12 (its MFI is read)
In this section, each of the binders is paired with its reported MFI.
Answer with the value's number alone.

binder	recorded_measurement
AB10 (antibody, V domains shown, Hybridoma monoclonal; also called antibody 10; clone 10) VH: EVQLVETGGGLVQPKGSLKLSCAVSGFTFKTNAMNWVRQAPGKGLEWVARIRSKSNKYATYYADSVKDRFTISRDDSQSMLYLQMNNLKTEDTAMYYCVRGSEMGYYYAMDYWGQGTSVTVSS VL: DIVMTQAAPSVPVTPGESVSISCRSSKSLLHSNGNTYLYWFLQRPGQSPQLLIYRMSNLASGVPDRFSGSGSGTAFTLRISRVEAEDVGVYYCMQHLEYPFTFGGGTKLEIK	1190
AB5 (antibody, V domains shown, Hybridoma monoclonal; also called antibody 5; clone 5) VH: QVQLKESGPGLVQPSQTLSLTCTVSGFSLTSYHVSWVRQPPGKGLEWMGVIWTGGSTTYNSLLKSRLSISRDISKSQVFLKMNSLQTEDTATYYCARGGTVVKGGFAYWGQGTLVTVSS VL: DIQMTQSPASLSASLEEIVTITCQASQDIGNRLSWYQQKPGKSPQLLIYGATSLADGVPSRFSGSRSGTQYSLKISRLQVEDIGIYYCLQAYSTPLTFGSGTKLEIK	1140

Write down MFI measured for item AB11 (antibody, V domains shown, Hybridoma monoclonal; also called antibody 11; clone 11) VH: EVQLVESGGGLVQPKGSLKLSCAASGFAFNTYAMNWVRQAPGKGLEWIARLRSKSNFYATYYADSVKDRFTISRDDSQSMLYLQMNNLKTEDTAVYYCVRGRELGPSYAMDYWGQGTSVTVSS VL: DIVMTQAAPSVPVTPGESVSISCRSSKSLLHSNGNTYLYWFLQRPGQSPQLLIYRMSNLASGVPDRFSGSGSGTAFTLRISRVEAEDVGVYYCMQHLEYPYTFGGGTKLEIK
968
